Biological target: Vitronectin Receptor (αVβ3) (Homo sapiens, UniProt P05106+P06756)
Construct: expressed in transfected cells; host or cells: 512P5 cells (plasma membrane preparation)
Sequence (P06756 31-889 limits assumed): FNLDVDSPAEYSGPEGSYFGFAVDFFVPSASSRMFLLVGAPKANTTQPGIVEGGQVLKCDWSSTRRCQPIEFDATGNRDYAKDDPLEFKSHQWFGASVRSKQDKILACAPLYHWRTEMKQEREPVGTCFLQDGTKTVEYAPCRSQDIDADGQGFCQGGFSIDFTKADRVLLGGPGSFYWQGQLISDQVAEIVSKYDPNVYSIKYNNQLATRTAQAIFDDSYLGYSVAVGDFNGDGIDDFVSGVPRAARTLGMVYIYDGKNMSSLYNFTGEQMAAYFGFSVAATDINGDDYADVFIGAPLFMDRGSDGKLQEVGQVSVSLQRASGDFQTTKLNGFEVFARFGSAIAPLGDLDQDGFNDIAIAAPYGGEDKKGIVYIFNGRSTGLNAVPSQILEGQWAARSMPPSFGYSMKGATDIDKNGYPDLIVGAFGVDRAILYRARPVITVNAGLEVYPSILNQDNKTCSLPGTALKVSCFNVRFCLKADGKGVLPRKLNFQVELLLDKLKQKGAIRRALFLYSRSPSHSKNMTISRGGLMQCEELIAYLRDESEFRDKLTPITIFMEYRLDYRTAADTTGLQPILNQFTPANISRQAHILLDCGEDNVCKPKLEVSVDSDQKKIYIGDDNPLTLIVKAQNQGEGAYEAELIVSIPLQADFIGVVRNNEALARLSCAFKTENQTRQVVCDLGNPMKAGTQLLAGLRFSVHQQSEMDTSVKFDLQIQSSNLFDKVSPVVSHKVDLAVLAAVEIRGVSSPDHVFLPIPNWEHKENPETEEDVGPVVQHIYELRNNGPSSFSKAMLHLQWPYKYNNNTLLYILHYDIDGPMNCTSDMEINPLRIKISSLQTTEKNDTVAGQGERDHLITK
Sequence (P06756 891-1048 partner limits assumed): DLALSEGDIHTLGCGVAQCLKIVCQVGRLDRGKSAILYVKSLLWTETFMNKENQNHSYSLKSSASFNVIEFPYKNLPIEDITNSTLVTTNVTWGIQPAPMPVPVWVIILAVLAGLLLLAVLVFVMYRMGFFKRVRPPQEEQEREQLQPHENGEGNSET
Sequence (P05106 27-788): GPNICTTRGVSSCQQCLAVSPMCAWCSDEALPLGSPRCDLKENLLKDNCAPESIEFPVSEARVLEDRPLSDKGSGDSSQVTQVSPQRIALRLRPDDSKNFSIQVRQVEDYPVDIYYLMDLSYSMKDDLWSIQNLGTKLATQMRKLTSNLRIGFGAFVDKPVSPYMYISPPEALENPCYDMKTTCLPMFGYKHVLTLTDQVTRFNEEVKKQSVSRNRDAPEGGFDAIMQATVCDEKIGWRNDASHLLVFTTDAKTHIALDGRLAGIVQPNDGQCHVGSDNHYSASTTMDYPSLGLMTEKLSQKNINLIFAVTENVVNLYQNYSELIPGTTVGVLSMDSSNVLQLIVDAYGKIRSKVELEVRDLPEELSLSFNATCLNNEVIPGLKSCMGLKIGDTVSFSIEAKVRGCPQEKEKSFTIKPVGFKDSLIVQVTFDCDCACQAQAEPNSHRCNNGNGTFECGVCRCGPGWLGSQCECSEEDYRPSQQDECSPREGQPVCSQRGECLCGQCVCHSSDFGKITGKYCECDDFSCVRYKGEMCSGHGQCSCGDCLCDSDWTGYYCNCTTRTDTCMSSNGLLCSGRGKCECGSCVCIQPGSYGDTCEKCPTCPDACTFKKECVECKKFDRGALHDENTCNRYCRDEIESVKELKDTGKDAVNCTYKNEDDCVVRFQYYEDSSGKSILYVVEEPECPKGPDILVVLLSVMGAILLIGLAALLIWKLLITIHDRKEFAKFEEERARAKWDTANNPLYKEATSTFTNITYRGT
Assay: Vitronectin Receptor (αVβ3) Binding Test Procedure
Conditions: read-out: (αVβ3) IC50 RECEPTOR BINDING
Where a name gives a salt, the structure may show the parent alone.
reported-property: IC50

• CCOC(=O)CC1CCc2cc(OCCCNC3=NCCCN3)ccc2C1 (centres unmarked) [Example 216, Acetic Acid Salt] = 60 µM
• N=C(N)NCCCCOc1ccc2c(c1)CCCC(CC(=O)O)C2 (centres unmarked) [Example 63, Trifluoroacetate] = 3.9 µM
• N=C(N)NCCCNC(=O)c1ccc2c(c1)NC(=O)C(CC(=O)O)C2 (centres unmarked) [Example 201, Hydrochloride] = 5.8 µM
• Cl.N=C(N)NCCCOc1ccc2c(c1)NC(=O)C(CC(=O)O)C2 (centres unmarked) [Example 86, Hydrochloride] = 7.3 µM
• N=C(N)NCCC=Cc1ccc2c(c1)NC(=O)C(CC(=O)O)C2.O=C(O)C(F)(F)F (centres unmarked) [Example 112, Trifluoroacetate] = 7 µM
• COC(=O)CC1CCc2cc(OCCCNC3=NCCCN3)ccc2C1 (centres unmarked) [Example 215, Bis(hydrochloride)] = 2 µM
• N=C(N)NCCOc1ccc2c(c1)CCCC(CC(=O)O)C2 (centres unmarked) [Example 61, Hydrochloride] = 1.7 µM
• N=C(N)NCCCC#Cc1ccc2c(c1)NC(=O)C(CC(=O)O)C2 (centres unmarked) [Example 101, Trifluoroacetate] = 8.9 µM
• Cc1ccc(S(=O)(=O)NC(=O)CC2CCc3cc(OCCCNC4=NCCCN4)ccc3C2)cc1 (centres unmarked) [Example 217, Trifluoroacetic Acid Salt] = 14.7 µM
• N=C(N)NCCCOc1ccc2c(c1)N(Cc1ccccc1)C(=O)C(CC(=O)O)C2 (centres unmarked) = 2.7 µM
• N=C(N)NCCOc1ccc2c(c1)NC(=O)C(CC(=O)O)C2 (centres unmarked) [Example 85, Hydrochloride] = 15.7 µM

----------
Measured melting point values are reported for all entries that follow.
reported-property: melting point

* N=C(N)NCCCOc1ccc2c(c1)CC(CCC(=O)O)C(=O)N2 (centres unmarked) | 168 to 172 °C
* N=C(N)NCCCCOc1cccc2c1NC(=O)C(CC(=O)O)C2 (centres unmarked) | 207 to 210 °C
* N=C(N)NCCC=Cc1ccc2c(c1)NC(=O)C(CC(=O)O)C2.O=C(O)C(F)(F)F (centres unmarked) | 173 to 176 °C
* N=C(N)NCCCOc1ccc2[nH]c(=O)c(CC(=O)O)cc2c1 | 207 to 212 °C (dec.)
* NCCOc1ccc2c(c1)NC(=O)C(CC(=O)O)C2 (centres unmarked) | 205 to 208 °C

----------
Target: Vitronectin Receptor (αVβ3) (Homo sapiens, UniProt P05106+P06756)
Construct: expressed in transfected cells; host or cells: 512P5 cells (plasma membrane preparation)
Assay: Vitronectin Receptor (αVβ3) Binding Test Procedure
Details: @ 30 μM; % Max = percentage of the specific binding; read-out: (αVβ3) RECEPTOR BINDING, % @ concentration
Counter-ions that a name gives are not always drawn.
reported-property: remaining activity at 30 µM (%)

• N=C(N)NCCCCCOc1cccc2c1NC(=O)C(CC(=O)O)C2 (centres unmarked) = 102
• N=C(N)NCCCOc1ccc2c(c1)NC(=O)C(CCC(=O)O)C2 (centres unmarked) = 55.9
• N=C(N)NCCCOc1ccc2c(c1)CC(CCC(=O)O)C(=O)N2 (centres unmarked) = 100
• N=C(N)NCCCOc1cccc2c1NC(=O)C(CC(=O)O)C2 (centres unmarked) = 100
• N=C(N)NCCCCNC(=O)c1ccc2c(c1)NC(=O)C(CC(=O)O)C2 (centres unmarked) [Example 202, Hydrochloride] = 50
